MEASUREMENT PROTOCOL: qHTS assay to identify small molecule antagonists of the sonic hedgehog signaling (Shh) pathway (AID 1259369); further: nearly all actives have a fitted effect of over 45% in size
CONDITION LABEL: NIH/3T3 Gli1-Luc reporter, Shh antagonist, luminescence 24 h; series mostly up to 92.4 µM
Inconclusive results are not listed. Activity calls are given as the source filed them. The call rests on the fitted dose curve.
Reply using exactly one outcome from active, inactive

# lookup: test call for CCC1CCC(CCC(=O)O)C1 (configuration not stated)
inactive

# lookup: test call for O=C(O)CCC(=O)OC[C@@H](NC(=O)C(Cl)Cl)[C@H](O)c1ccc([N+](=O)[O-])cc1
inactive

# lookup: test call for O=C(O)c1cccc(C[C@@H]2COc3ccc(OCc4nc5cc(F)ccc5s4)cc3[C@@H]2O)c1
inactive

# lookup: test call for CC(C)C(O)C(C)(C)CO (configuration not stated)
inactive

# lookup: test call for CCOC(=O)N1CCC(Nc2ccc(Cl)cc2N)CC1
active

# lookup: test call for BrC(Br)C(Br)Br
inactive

# lookup: test call for Cc1cccc2sc(N)nc12
inactive

---

MEASUREMENT PROTOCOL: Human pregnane X receptor (PXR) small molecule agonists, qHTS cell viability counter screen (AID 1346977); further: nearly all actives have a fitted effect of over 50% in size
CONDITION LABEL: PXR-Luc HepG2 viability, CellTiter-Fluor, 24 h; series mostly up to 92.4 µM
Records with an inconclusive call do not appear. Activity calls are given as the source filed them. Calls follow the shape of the dose curve; as a rule, active = well fitted cell-killing curve with a large enough effect in the repeat runs; inconclusive = weak or mixed curves, or effect the other way; inactive = flat fitted curve, though single readings scatter.
Reply using exactly one outcome from T (active), F (inactive)

# lookup: test call for CC(C)C1CCC(C(=O)N[C@H](Cc2ccccc2)C(=O)O)CC1 (some centres undefined)
F

# lookup: test call for Cc1ccc(Cl)cc1N
F

# lookup: test call for CC1CCC(C(C)CS)CC1S (centres undefined)
F

# lookup: test call for O=C(Nc1ccc(C(=O)O)c(O)c1)c1ccccc1
F

# lookup: test call for CC(C)c1ccc(C(=O)N=C(N)N)cc1S(C)(=O)=O
F

# lookup: test call for CC1=C2[C@@H]([C@H](C)CC[C@H]2/C=C(\C)C(=O)O)[C@H](O)C1
F

# lookup: test call for Cc1cc(CCC(=O)OCCOCCOCCOC(=O)CCc2cc(C)c(O)c(C(C)(C)C)c2)cc(C(C)(C)C)c1O
F

# lookup: test call for O=S(=O)(O)CO
F

# lookup: test call for O=C(c1ccccc1)c1ccc(O)cc1
F

# lookup: test call for CCCCCCCCCCCCCC(=O)OCC(O)CO (centres undefined)
F

# lookup: test call for C=C(C)C(=O)OCCC(F)(F)C(F)(F)C(F)(F)C(F)(F)C(F)(F)C(F)(F)F
F

# lookup: test call for COc1ccc(/C=C/C(=O)c2ccc(OC)cc2OC)cc1
F

# lookup: test call for CCOC(=O)N1CCC(Nc2ccc(Cl)cc2N)CC1
F

# lookup: test call for FC(F)(F)C(F)(F)C(F)(F)C(F)(F)CCI
F

# lookup: test call for CCOC(=O)c1ccc(NC(=O)CN2CCCCC2)cc1
F

# lookup: test call for CC(O)Cn1cnc2c1c(=O)n(C)c(=O)n2C (centres undefined)
F

# lookup: test call for COc1cc(C(C)=O)ccc1OCCCN1CCC(c2noc3cc(F)ccc23)CC1
F

# lookup: test call for C[C@H](CS)C(=O)N1CCC[C@H]1C(=O)O
F

# lookup: test call for O=C(NS(=O)(=O)/C=C/c1ccccc1)c1ccc(F)cc1Cl
F

# lookup: test call for CC(C(=O)O)c1ccc(C(=O)c2cccs2)cc1 (centres undefined)
F

# lookup: test call for Nc1nc(-c2ccc([N+](=O)[O-])cc2)cs1
F

# lookup: test call for O=C(O)c1ccc(O)cc1O
F

# lookup: test call for CCCOC(=O)c1c(Cl)c(Cl)c(Cl)c(Cl)c1C(=O)OCCC
F

# lookup: test call for CC(=O)Oc1cccc(O)c1
F

# lookup: test call for NC(=O)CCCCC(N)=O
F

# lookup: test call for Nc1ccn([C@H]2CS[C@@H](CO)O2)c(=O)n1
F

# lookup: test call for CCCCC(CC)COS(=O)(=O)O (centres undefined)
F

# lookup: test call for C/C(C=O)=C\c1ccccc1
F

# lookup: test call for CCN(Cc1cccc(S(=O)(=O)O)c1)c1ccc(C(=C2C=CC(=[N+](CC)Cc3cccc(S(=O)(=O)O)c3)C=C2)c2ccc(O)cc2S(=O)(=O)[O-])cc1
T

# lookup: test call for O=[N+]([O-])c1ccc2ncccc2c1
F

# lookup: test call for CC(C)(C)C(O)/C=C/c1ccc2c(c1)OCO2 (centres undefined)
F

# lookup: test call for CCCCCCCC(=O)OCCCCCC
F

# lookup: test call for C=Cc1ccc(OC(C)=O)cc1
F

# lookup: test call for COc1ccc(CCN(C)CCCN2CCc3cc(OC)c(OC)cc3CC2=O)cc1OC
F

# lookup: test call for ClC1=C(Cl)C1(Cl)Cl
F

# lookup: test call for CCCCCCCC/C=C\CCCCCCCC(=O)OCCO
F

# lookup: test call for CCCCCc1ccco1
F

# lookup: test call for CCO[Si](C)(CCCOCC1CO1)OCC (centres undefined)
F

# lookup: test call for CC(C)(O)c1coc(S(=O)(=O)NC(=O)Nc2c3c(cc4c2CCC4)CCC3)c1
F

# lookup: test call for Cc1oc(=O)oc1COC(=O)[C@@H]1N2C(=O)[C@@H](NC(=O)[C@H](N)c3ccccc3)[C@H]2SC1(C)C
F

# lookup: test call for CCN(CC)C(=O)N1CCN(C)CC1
F

# lookup: test call for Cc1cc(CCCOc2c(C)cc(-c3noc(C(F)(F)F)n3)cc2C)on1
F

# lookup: test call for Nc1cccc2c(N)cccc12
T

# lookup: test call for CCOC(=O)C(C)O (centres undefined)
F

# lookup: test call for CC(C)C(=O)OCCOc1ccccc1
F

# lookup: test call for C=C(C)c1ccccc1
F

# lookup: test call for c1ccc(CNc2ncnc3c2ncn3C2CCCCO2)cc1 (centres undefined)
F

# lookup: test call for Nc1ccc(F)cc1
F

# lookup: test call for O=c1[nH][nH]c(=O)c2cc([N+](=O)[O-])ccc12
F

# lookup: test call for N[C@@H](Cc1cc(I)c(O)c(I)c1)C(=O)O
F

# lookup: test call for O=P(O)(O)Oc1ccccc1
F

# lookup: test call for COC1CCC=CO1 (centres undefined)
F

# lookup: test call for CNc1c2c(nn1C)CCCC2
F

# lookup: test call for CC(C)(C)C1(CCc2ccc(Cl)cc2)CO1 (centres undefined)
F
